Just for reference, patent US6541503B2 is where these values come from.

# pIC50 measurements, system: Lck (Homo sapiens, UniProt P06239)
# Sequence (P06239 whole entry, species assumed): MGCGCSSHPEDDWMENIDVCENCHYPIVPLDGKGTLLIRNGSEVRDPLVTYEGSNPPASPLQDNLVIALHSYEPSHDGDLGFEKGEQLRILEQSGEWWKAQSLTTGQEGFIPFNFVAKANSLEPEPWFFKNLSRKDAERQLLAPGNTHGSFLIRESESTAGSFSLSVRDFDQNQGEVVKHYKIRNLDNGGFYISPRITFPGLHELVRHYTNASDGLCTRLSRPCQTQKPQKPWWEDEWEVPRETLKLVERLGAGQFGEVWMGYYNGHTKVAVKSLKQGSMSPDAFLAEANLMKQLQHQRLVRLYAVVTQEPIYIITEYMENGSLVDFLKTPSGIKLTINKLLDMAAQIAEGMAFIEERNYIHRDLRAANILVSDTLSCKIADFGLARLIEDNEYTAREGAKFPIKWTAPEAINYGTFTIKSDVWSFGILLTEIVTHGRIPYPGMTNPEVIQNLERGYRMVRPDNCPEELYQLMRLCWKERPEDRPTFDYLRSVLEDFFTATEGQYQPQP
pIC50: −log10 of the molar value.

The examples below pair each entry with its known result.
# Entry Smiles, pIC50
rows = [
    ("CNS(=O)(=O)Cc1ccc(NN=C2C(=O)Nc3cc(C)c(O)c(C)c32)cc1", "< 7.00"),
    ("CNS(=O)(=O)Cc1ccc(NN=C2C(=O)Nc3ccc4ncccc4c32)cc1", "< 7.00"),
]

Return reported pIC50; argument: CS(=O)(=O)Cc1ccc(NC=C2C(=O)Nc3ccc4ncsc4c32)cc1
< 7.00

* * *

System: MES/SA ovarian carcinoma cells
Assay Protocol: FACS assay (cell death by flow cytometry), MES/SA
Type: cell-based
Assay Setup: 50% cell death, 72 h; read-out: FACS MES/SA IC50
Readout: IC50

Return reported IC50; argument: NS(=O)(=O)c1ccc(NN=C2C(=O)Nc3ccc(-c4cnco4)cc32)cc1
100 to 500 nM

* * *

Test system: HDF normal diploid fibroblast cells
Assay Protocol: FACS assay (cell death by flow cytometry), HDF
Assay type: cell-based, human
Assay Setup: Homo sapiens, Fibroblast, 72 h, read-out: FACS HDF IC50
Readout: IC50

Return reported IC50; argument: O=C1Nc2ccc3ncsc3c2C1=CNc1ccc(S(=O)(=O)Nc2ccccn2)cc1
> 5 µM
